Reference source for all entries: patent US6048882A

Test system: experimental hepatopathy models prepared by D-galactosamine administration
assay: Inhibitory action on hepatopathy in hepatopathy models by D-galactosamine (serum GPT and GOT)
Assay type: in vivo, Wistar strain male mice
assay.setup: iv, 24 h; lipid emulsion, i.v., dose 30 μg/kg, 2 hours after D-galactosamine; read-out: GPT inhibition
Counter-ions that a name gives are not always drawn.
endpoint.name: inhibition in vivo at 0.03 mg/kg (%)
Give bare numbers, in %.

CC(C)=CCC/C(C)=C/CC/C(C)=C/CC/C(C)=C/CC/C(C)=C/CC/C(C)=C/CC/C(C)=C/CC/C(C)=C/CC/C(C)=C/CNCCc1ccc2c(c1)OCO2 [Compound 17, Hydrochloride] = 23

Give me inhibition in vivo at 0.03 mg/kg for each of these molecules, listed below.
1. CC(C)=CCC/C(C)=C/CC/C(C)=C/CC/C(C)=C/CC/C(C)=C/CC/C(C)=C/CC/C(C)=C/CC/C(C)=C/CC/C(C)=C/CNCc1cccnc1 [Compound 26, dihydrochloride]
2. CC(C)=CCC/C(C)=C/CC/C(C)=C/CC/C(C)=C/CC/C(C)=C/CC/C(C)=C/CC/C(C)=C/CC/C(C)=C/CC/C(C)=C/CNCCCc1ccc2c(c1)OCO2 [Compound 18, hydrochloride]

1. 35
2. 20
